target_or_system: T1, Recombinant human MASP1 enzyme (fragment corresponding to amino acids 297-699, C-terminal His Tag) (human, UniProt P48740 297-699)
T1 sequence: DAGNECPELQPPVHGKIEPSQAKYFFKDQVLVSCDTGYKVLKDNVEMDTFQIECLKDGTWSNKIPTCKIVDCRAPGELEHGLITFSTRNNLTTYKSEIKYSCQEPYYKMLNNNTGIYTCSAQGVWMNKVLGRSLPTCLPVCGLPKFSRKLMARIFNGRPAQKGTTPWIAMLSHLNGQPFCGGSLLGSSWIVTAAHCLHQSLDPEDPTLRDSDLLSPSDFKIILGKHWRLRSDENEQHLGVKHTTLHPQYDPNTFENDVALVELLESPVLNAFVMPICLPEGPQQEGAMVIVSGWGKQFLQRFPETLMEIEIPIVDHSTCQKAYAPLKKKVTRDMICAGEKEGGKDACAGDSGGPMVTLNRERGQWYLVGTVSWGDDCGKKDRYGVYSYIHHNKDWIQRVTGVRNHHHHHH
protocol_notes: cell-based or functional assay
Bridge positions count the residues as written; N and C are the ends. Square brackets hold non-standard residues; d marks the D form. Ends that are not written are not given here. Chg = N[C@H](C(=O)O)C1CCCCC1; Sar = CNCC(=O)O
test_readout: human MASP1 IC50 (µM)
State just the number; it will be interpreted in µM.

Task: Look at this binder and give its reported human MASP1 IC50. [Sar]ICSRSLPP[Chg]CIPD-NH2 (disulfide 3-11; N-terminus assumed; SMILES CC[C@H](C)[C@H](NC(=O)CNC)C(=O)N[C@H]1CSSC[C@@H](C(=O)N[C@H](C(=O)N2CCC[C@H]2C(=O)N[C@@H](CC(=O)O)C(N)=O)[C@@H](C)CC)NC(=O)[C@H](C2CCCCC2)NC(=O)[C@@H]2CCCN2C(=O)[C@@H]2CCCN2C(=O)[C@H](CC(C)C)NC(=O)[C@H](CO)NC(=O)[C@H](CCCNC(=N)N)NC(=O)[C@H](CO)NC1=O) [((N-Me)G)-IC+SRSLPP-(Chg)-C+IPD-NH2]
Result: 0.015
